PROTOCOL: yeast display, Sf9 membrane polyspecificity reagent, FACS + sequencing; frameworks hold sequencing errors
TEST READOUT: polyreactivity (PSR sort gate)

QVQLVESGGGLVQAGGSLRLSCAASGRTFLLYAMGWYRQAPGKERELVAAITWGGGSTYYADSVKGRFTISRDNAKNTVYLQMNSLKPEDTAVYYCAADGSWHGYGYWGQGTQVTVSS ... low polyreactivity
QVQLEESGGGLDQAGGSLRLSCAASGRIFVFYAMGWYRQAPGKERELVAAITASSTRTYFADSVKGRFTISRDNAKNTVYLQMNSLKPEDTAVYYCAADRYYWGQGTQVTVSS ... low polyreactivity

###

PROTOCOL: yeast display, Sf9 membrane polyspecificity reagent, FACS + sequencing; frameworks hold sequencing errors
TEST READOUT: polyreactivity (PSR sort gate)

Reference set (4 entries):
QVQLVESGGGLVQAGGSLRLRCAASGFIFGRYTMGWYRQAPGKERELVAAISSRGGSTYYADSVKGRFTISRDNAKNTVYLQMNSLKPEDTAVYYCAADEIYCYDYWGQGTQVTVSS ... high polyreactivity
QVQLVESGGGLVQAGGSLRLSCAASGFTFTRNAMGWYRQAPGKEMELVAGITFIGTSTYYADSVKGRFTISRDNAKNTVYLQMNSLKPEDTAVYYCAKEYDDYVYGYHYTRYGYWGQGTQVTVSS ... low polyreactivity
QVQLVESGGGLVQAGGSLRISCAASGRIFYSNTMGWYRQAPGKEREVVARIDTGGGSTYADSVKGRFTISRDNAKKSVYLEMHSLKPADTAVYYCYKKGRWRSWGSTSLVSMDYWGQGTQVTVSS ... low polyreactivity
QVQLVESGGGLVQAGGSLRLSCAASGFTFYTNAMGLSRQAPGKERELVAAISQRGASTYYADSVKGRFTISRDNAKNTFYLEMTSLKPEDTAVYYCAASSRTHGSYYYWGQGTQVTVSS ... high polyreactivity

Lab note: `QVQLVESGGGLVQAGGSLRLSCAASGFTFGYYAMGWYRQAPGKERELVDAISSSGGSTYYSDSVKGSFTISRDNAKNTVYLQMNSLKPEDTAVYYCNRGTTVRGPGYTNGRDITRYDYWGQGTQVTVSS` gave polyreactivity (PSR sort gate) of high polyreactivity

###

PROTOCOL: yeast display, Sf9 membrane polyspecificity reagent, FACS + sequencing; frameworks hold sequencing errors
TEST READOUT: polyreactivity (PSR sort gate)

QVHLVESGGGLVQAGGSLGLSCAASGFTFANNAMGWYRQAPGKERELVAAISSSGGSTYYADSVKVRFTISRDNAKKTVYLQMNSLKPEDTAVYYCAARRRGSYYGYGYWGQGTQVTVSS ... high polyreactivity
QVQLVESGGGLFQAGGSLRLSCAASGSIFYYYAMGWYRQAPGKERELVAAITRSSGSTYADSVKGRFTISGDNAMYTVYVQMNSLKPEDTAVYYCATVQSDWRRNYSYYHWGQATQVTVSS ... high polyreactivity
QVQLVESGGGLVQAGGSLRLSCAASGRIFAKYAMGWYRQAPGTERELVAAISWGGGSTYYADSVKGRFTISRDNAKNTVYLQMNSLKPEDTAVYYCAARIPKQRDVRGSGMNYWGQGTQVTVSS ... high polyreactivity

###

PROTOCOL: yeast display, Sf9 membrane polyspecificity reagent, FACS + sequencing; frameworks hold sequencing errors
TEST READOUT: polyreactivity (PSR sort gate)

QVQLVESGGGIVQAGGSLRLSCAASGSIFWVNVMGWYRQAPGKEREFVAAITRSGGSTYYADSVKGRFTISRDNAKNTVYLQMNSLKPEDTAVYYCNRRGRRGYDYWGQGTLVTVSS ... high polyreactivity
QVQLVESGGGLVQAGGSLRLSCAASGSTFTAYAMGWYRQAPGKERELVAAISKRSGGTYYADSVKGRFTISRDNAKNTVYLQMNSLKPEVTAVYYCGQGTQVTVSS ... low polyreactivity
QVQLVESGGGLVQAGGSLRLSFAATGSILLRYAMGWYRQAPGKERELVAAISYDGGGTFYADSVKGRFTISRDNAKNTVYLQMHSLKPEDTAVYYCAARVIFRVKGLEYWGQGTQVTVSS ... low polyreactivity
QVQLVESGGGLVQAGGSLRLSCAASGRTFIGNAMGWSRQAPGKERELVAGIDSDGSTNYADSVKGRFTISRDNAKNTVYLQMNSLKPEDTAVYYCAAVQGYRFYEYYYWGQGTQVTVSS ... low polyreactivity
QVQLVESWGGLVQAGGSLRLSCAASGSIFDNYAMGWYRQAPGKERELVAAISWSGGRTYYADSVKGRFTISRDNAKNTVYLQMNSLKPEDTAVYYCAAYVYTSFLYYYWGQGTQVTVSS ... high polyreactivity
QVQLVESGGGLVQAGVSLRLSCAASGRIFPGYAMGSDRQAPAKERELVAGITWRTARTYYADSVKGRFTISRDNAKNTVYLQMNSLKPEDTAVYYCAAVSDYEGNYWGQGTQVTVSS ... high polyreactivity
QVQLVESWGGLVQAGGSLRLSCAASGRTFRLYAMGWYRQAPGKERELVATNTSTGSTNYADSVKGRFTISRDNAKNTVFLQMNSLKPDDTAVYYCNAAWYNPKSWTQYPPFDYWGQGTQVTVSS ... high polyreactivity
QVQLVESGGGLVQAGGSLRLSCAASGFIFWSYAMGWYRQAPGKERELVAAIDLTGGSTYYADSVKGRFTISRDNAKNTVYLQMNSLKPEDTAVYYCNADGDSYAFTNSDSGFDYWGQGTQVTVSS ... low polyreactivity

Lab note: `QVQLVESGGGLVQAGGSLRLSCAASGFIFGAYAMGWYRQAPGKERELVAAITKSGGRTYYADSVKGRFTISRDNAKNTVYLQMNSLKPEDTAVYFCAAVTRYPREYDYWGQGTQVTVSS` gave polyreactivity (PSR sort gate) of high polyreactivity

Lab note: `QVHLVESGGGLVQAGGSLRLSCAASGSTLHYYTMGWYRQEPGKERELVAAITSGGSTHYADSVKGRFTISRDNAKNTVYLQMNSLKPEDTAVYYCAVKTGKWIPRDYWGQGTQVTVSS` gave polyreactivity (PSR sort gate) of low polyreactivity

Lab note: `QVQLVESGAGLVQAGGSRRLSCAASGSIFYRYTMGWYRQAPGKERELVAGITFGAGTYYADSVKGRFTISRDNAKNTVYLQMNSLKPEDTAVYYCNAIHLPRNRDYWGQGTQVTVSS` gave polyreactivity (PSR sort gate) of low polyreactivity

Lab note: `QVQLVESGGGLVQAGGSLRLSCAASGSTFYLNAMGWYRQAPWKERELVASITWRGGSTYYADSVKGRFTISRDNAKNTVYLQMNSLKPEDTGVYYCAADATRLRTRYKRDYWGQGSQVTVSS` gave polyreactivity (PSR sort gate) of high polyreactivity

Lab note: `QVQLVESGGGLVQAGGSLRLSCAASGRTFLFNGMGWYRQAPGKERELVASITRGGSTYADSVKGRFTISRDNAKNTGYVQMNSLNPEDTAVYDCNAYFWFPYNYWGQGTQVTVSS` gave polyreactivity (PSR sort gate) of high polyreactivity

Lab note: `QVQLVESGGGLVQAGGSLRLSCAASGRIFSWNAMGWYRQAPGKERELVARITWNGGRTYYADSVKGRFTISRDNAKNTVYLQMNSLKPEDTAVYYCNAERFDLTYNYWGQGTQVTVSS` gave polyreactivity (PSR sort gate) of high polyreactivity

Lab note: `QVQLVESGGGLVQAGGSLRLSCAGSGRIFSENAMGWYRQAPGKERELVAAISVSGGSTYYADSVKGRFTISRDNAKNTVYLQMNSLKPEDTAVYYCAAEYLAYYSGYDYWGQGTQVTVSS` gave polyreactivity (PSR sort gate) of high polyreactivity

Lab note: `QVQLVESGGGLVQAGGSLRLSCAASGITFSRNAMGWYRQAPGKERELVATITSGGSTNYADSVKGRFTISRDNAKNTVYLQMNSLKPEDTAVYYCAVDYDSYWYGTYVNEYDYWGQGTQVTVSS` gave polyreactivity (PSR sort gate) of low polyreactivity

Lab note: `QVQLVESGGGLVQAGGSLRLSCAASGRIFGDYGMGWYRQAPGKERELVAAITDRGGPTYYADSVKGRFTISRDNAKNTVYLQRNSLKPEDTAVYYCNARQSDIFDYDYWGQGTQVTVSS` gave polyreactivity (PSR sort gate) of low polyreactivity

Lab note: `QLQLVESGGGLVQAGGSLRLSCAASGSIFDQNAMGWYRHAPGKERELVAAISKSGGSTYYADSVKGRFTISRDNAKNTVYLQLNSLKPEDTAVYYCAARYHYPGNWYNYWGQGTQVTVSS` gave polyreactivity (PSR sort gate) of low polyreactivity

###

PROTOCOL: yeast display, Sf9 membrane polyspecificity reagent, FACS + sequencing; frameworks hold sequencing errors
TEST READOUT: polyreactivity (PSR sort gate)

QVQLVESGGGLVQAGGSLRLSCAASGSIFWGNDMGWYRQAPGKERELVAGIRNSGTSTYYADSVKGRFTISRDNAKNTVYVQMNSLKPEDTAVYDCAAADGRQYSRYYWRGHDYWGQGTQVTVSS ... low polyreactivity
QVQLVESGGGLVQAGGSLRLSCAASGLTFSYYTMGWYRPAPGKERELVAAITSSSGRTYYADSVKGRFSISRDNAKNTVYLQLNSLKPEDTAVYYCAADRWYREYDYWGLGTQVTVSS ... low polyreactivity
